Origin of values: the nanobody polyreactivity screen of Harvey et al. (2022)

assay: yeast display, Sf9 membrane polyspecificity reagent, FACS + sequencing; frameworks hold sequencing errors
attribute.measured: polyreactivity (PSR sort gate)

Worked set:
residue_sequence=QVQLVDSGGGLVQAGGSLRLSAASGSTLSGNTMGWYRQAPGKERELVAAINDSGGSTYYADSVKGRFTISRDNAKNTVYLQMNSLKPEDTAVYYCAAETGYAFDYWGQGTQVTVSS attribute_measured="polyreactivity (PSR sort gate)" result="low polyreactivity"
residue_sequence=QVQLVESGGGLVQAGGSLRLSCAASGGTFGKNAMGWYRQAPGKERELVAAITWSGARTFYADSVKGRFTISRDNAKNTVYLQMNSLKPEDTAVYYCAKGGTRFTRYEYWGQGTQVTVSS attribute_measured="polyreactivity (PSR sort gate)" result="high polyreactivity"
residue_sequence=QVQLVESGGGLVQAGGSLRLSCAASGSTFKYYAMGWYRQAPGKEMELVAAIRGGGSTNYADSVTGPFTISRDNAKNTVYLQMNSLKPEDTAVYYCAARYGWYRGYNYWGQGTQVTVSS attribute_measured="polyreactivity (PSR sort gate)" result="high polyreactivity"
residue_sequence=QVQLVESGGGLVQAGGSLRLSCADSGLIFYRYAMGWYRQAPGTERELVAAISGSVGSTYADSVKGRFTISRDNAKNTVYLQMNSLKPEDTVVYYCSRETYRSYGAYDYWGLGTQVTVSS attribute_measured="polyreactivity (PSR sort gate)" result="low polyreactivity"

Data request: Please look at this sequence and report its polyreactivity (PSR sort gate): QVQLVESGGGLVQAGGSLRLSFAASGITFGYYDMGWYRQAPGKERELVASISSGGNTNYADSVKGRFTISRDNAKNTVYLQMNSLKPEDTAVYYCNVRYWGFYDYDYWGQGTQVTVSS
Data returned: low polyreactivity
